tested on: Klebsiella aerogenes; assay: Minimum inhibitory concentration against Klebsiella aerogenes 1522E was determined by agar dilution method using Mueller-Hinton; type: functional
Metric name: MIC (µg/mL)
Answers are plain numbers, in µg/mL.

Consider the worked cases shown below.
- Compound structure string: "COc1cc(/C=C/[C@@H]2C[C@H](SC3=C(C(=O)O)N4C(=O)[C@H]([C@@H](C)O)[C@H]4[C@H]3C)CN2)on1"
  Metric name: "MIC"
  Unit abbrev: "µg/mL"
  Measured value: 0.391
- Compound structure string: "COC(=O)c1cc(/C=C/[C@@H]2C[C@H](SC3=C(C(=O)O)N4C(=O)[C@H]([C@@H](C)O)[C@H]4[C@H]3C)CN2)on1"
  Metric name: "MIC"
  Unit abbrev: "µg/mL"
  Measured value: 0.049

Field request: MIC | item: `C[C@@H](O)[C@H]1C(=O)N2C(C(=O)O)=C(S[C@@H]3CN[C@H](/C=C/c4ccno4)C3)[C@H](C)[C@H]12`
0.049
